- subject.of.test: T1, schistosome legumain SmAE (Schistosoma mansoni asparaginyl endopeptidase) (Schistosoma mansoni, UniProt P09841 32-291)
- T1 sequence (looked up): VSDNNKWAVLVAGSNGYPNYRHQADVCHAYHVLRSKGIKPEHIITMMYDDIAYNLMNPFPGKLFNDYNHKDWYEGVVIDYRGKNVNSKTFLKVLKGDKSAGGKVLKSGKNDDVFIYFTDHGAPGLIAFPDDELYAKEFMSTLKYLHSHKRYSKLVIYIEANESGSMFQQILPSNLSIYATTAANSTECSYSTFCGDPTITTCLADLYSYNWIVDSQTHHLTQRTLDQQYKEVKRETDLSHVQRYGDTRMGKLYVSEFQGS
- assay.remarks: cell-based or functional assay
Numbered stars: 1 amine (or outer) side, 2 acyl side, 3 side chain; on linkers, the order of the positions; unused ones are H or OH. Square brackets hold non-standard residues; d marks the D form. * marks the point of attachment. AAsn = aza-asparagine, NC(=O)CN(N[*:1])C(=O)[*:2]; azaAsn = NC(=O)CN(N[*:1])C(=O)[*:2]; (S,S)‑EP = not defined here; trans‑EP = not defined here; Cbz = O=C(OCc1ccccc1)*
For each entry below, report its pIC50 value.
Hey, just a heads up that pIC50 is the negative log base 10 of the concentration in molar.

**Query** For Cbz-Ala-Ala-[AAsn]-{trans‑EP-Ph‑4‑Cl} (reading uncertain; also: printed as Cbz-Ala-Ala-AAsn-(trans)-EP-Ph-4-Cl) [Cbz-Ala-Ala-AAsn-(trans)-EP-Ph-4-Cl] , what is its reported pIC50?
**Result** 7.05

**Query** I would be grateful if you could share the reported pIC50 for Cbz-Ala-Ala-[azaAsn]-{(2S,3S)‑EP‑COOEt} [Cbz-Ala-Ala-AAsn-(2S, 3S)-EP-COOEt] .
**Result** 7.28

**Query** Fill blank: measured pIC50 of the binder Cbz-Ala-Ala-[AAsn]-{(S,S)‑EP-COOCH2CH2Ph} (reading uncertain; also: printed as Cbz-Ala-Ala-AAsn-(S, S)-EP-COOCH2CH2Ph) [Cbz-Ala-Ala-AAsn-(S, S)-EP-COOCH2CH2Ph] is ____.
**Result** 7.35
